- experiment: folding stability dG unfold (combined trypsin and chymotrypsin); higher = more stable
experimental-readout: folding stability dG unfold (kcal/mol)
Give the number; kcal/mol is assumed, so skip it.

Worked cases, answers included:
{"sequence-data": "SAGGSAGGSGPMDDPVPPRFSVETSVSPVALPPEFVAYVAAHPEEVDAVYTTTVVVLEEGPAGSAGGSAGGS [r12_196_JUSTAS]", "folding stability dG unfold (kcal/mol)": -0.449}
{"sequence-data": "SAGGSAGGSAMIVVPVDLVRERLDELVFRGEDGVEYRAEVRVFEVGDRPVAVIDLRPLDEDGSAGGSAGGSA [r18_447_TrMRF]", "folding stability dG unfold (kcal/mol)": 0.823}
{"sequence-data": "SAGGPLEVTLVESETTFLPEGKVVTREVTRLPDDTILVTTYTTTIDPNSGTTTTTSETVVLPAGAALSAGGS [r16_639_JUSTAS]", "folding stability dG unfold (kcal/mol)": 1.49}

Okay, next one:
SAGGSIPLSDIKDIEIHPWRHPNNNYPMYRIRIDNGRDMVIFPGAIFEFDPDDGKIEEVKPMPFGDSAGGSA [r2_374_TrROS] yielded folding stability dG unfold of 0.238

* * *

# folding stability dG unfold values compiled below
- experiment: folding stability dG unfold (combined trypsin and chymotrypsin); higher = more stable
Give the number; kcal/mol is assumed, so skip it.

Worked cases, answers included:
{"sequence-data": "SAGGSAGGSAGGSKTKAELFKVGDKLILATYHPDTGKVEIFYPDNSVETLPAEEAEKLFSAGGSAGGSAGGS [r10_1140_TrMRF]", "folding stability dG unfold / kcal/mol": 1.03}
{"sequence-data": "SAGGSAGGSAGGSMVTLTVEKTFTSLLKTPESELIPVTSTVTEEVTIPESEATEELIKELSAGGSAGGSAGG [r7_777_JUSTAS]", "folding stability dG unfold / kcal/mol": 0.399}
{"sequence-data": "SAGMKPGEVLTVEDIPPGALLRNPKGESLGPVVEVEVRALEDSVEAVVTFPDGSKATVTFPADDIVLDPSAG [r5_850_TrMRF]", "folding stability dG unfold / kcal/mol": 0.987}
{"sequence-data": "SAGMVTLRVKLKDGRELEIQLASEEEIESLPPGAKVIPIPAESEEEALEAAARLLAEEEGLEIEEVEKVSAG [r5_119_TrROS_Hall]", "folding stability dG unfold / kcal/mol": 0.638}

Okay, next one:
SAGGSAGGGYELRVTVYDPRTGKPVAEATFTATSPEEAEARFEEIRRALPPEYLVFAEIRPVPESAGGSAGG [r6_688_TrMRF] yielded folding stability dG unfold of 5.25

* * *

- experiment: folding stability dG unfold (combined trypsin and chymotrypsin); higher = more stable
# folding stability dG unfold values compiled below
Give the number; kcal/mol is assumed, so skip it.

SAGGSAGGSAETFTLPGGYTITVEPTEGGVKVTITHPDGSKGEVELGPTEPLVVDPDGATILASAGGSAGGS [r12_281_TrMRF] yielded folding stability dG unfold of 1.66

SAGMSSTPQKIVRTTGSTPLPDGSAVSTTTTTYSDGSSTVTTAIPGGLETRATVPPDGTVTTTTAPLLGSAG [r5_168_JUSTAS] yielded folding stability dG unfold of -0.422

SAGGSEEKVFEFEVVEVTSVEVKEDGTVTIEVTVRLENGLLLTVRVTFDLATNEVTIEVELRPLPESAGGSA [r2_321_TrROS_Hall] yielded folding stability dG unfold of 4.41

SAGGPMPLDDIEIHNVWPYKGEYWMVMITVPNNGKEIMIPWDDLDELLENDPNVEVDVMPIKPGQPMSAGGS [r16_61_TrROS] yielded folding stability dG unfold of 1.25

SIKELAKELPGFQVSVEPDDPGQVKITIMVPDDPQQQKRFQNKIIELANDIQGEHGMPVTIEIQPVPPGDSA [r9_1099_TrROS] yielded folding stability dG unfold of -0.00283

SAGSMSSVKKVKITTTSYDPTNGAKKETSYDVTVTTTTYPATGEITRTIYFTSTGKWKVEHLPPGAPLASAG [r14_587_JUSTAS] yielded folding stability dG unfold of 1.97

SAGGSSLTTPDGVKVEVYENPENNTIYVFEKKPDGTYTLKTLTKEGDKVTEVSTKTIKSNEKEKLLSAGGSA [r2_336_JUSTAS] yielded folding stability dG unfold of 1.52

* * *

- experiment: folding stability dG unfold (combined trypsin and chymotrypsin); higher = more stable
experimental-readout: folding stability dG unfold

Worked cases, answers included:
{"sequence-data": "SAGGSAGGSMKVELIRTEEGKVVATEFFPVPLLLPGGVPALLEGSRTIKTIPVKDPEKAKELLSAGGSAGGS [r12_915_JUSTAS]", "folding stability dG unfold": "< -1 kcal/mol"}
{"sequence-data": "SAGGSAGGSAEPDPSSPEPYEVLEVVPRTIVSRVEQPGNPQLLRQTVDVVIIKNPSNGLLDSAGGSAGGSAG [r3_391_JUSTAS]", "folding stability dG unfold": "< -1 kcal/mol"}

SAGGSAVGYYVETEIEKVEEKTYTFKPDGSPLKYFKNVKKNIKVKKVYVVKPTPDNSVIVDPNIPLSAGGSA [r15_162_JUSTAS] yielded folding stability dG unfold of < -1 kcal/mol

SPEIKIELVYDEETEELYLEIEIRFPESEEEAIEALKKLLEELGFEVVEIEEIEVEEDGTVRIRVRIRKKSA [r9_876_TrROS_Hall] yielded folding stability dG unfold of > 6 kcal/mol

* * *

# folding stability dG unfold values compiled below
- experiment: folding stability dG unfold (combined trypsin and chymotrypsin); higher = more stable
Give the number; kcal/mol is assumed, so skip it.

{"sequence-data": "SAGGEKIKLKVVIKVPKELKNLSKEEIEELLKKKLGPNYKITKVEIKVEKNENGEEYLVVEVEIEKESAGGS [r16_408_TrROS_Hall]", "measure-unit": "kcal/mol", "recorded-result": 3.58}
{"sequence-data": "SAGKKPKVIEKTITIKVYDKKTKKEYEIKIKVRVVKKDGKVIEEFSEEEAKELAKKLAEELKKNKNIKPSAG [r5_426_TrROS_Hall]", "measure-unit": "kcal/mol", "recorded-result": 2.22}
{"sequence-data": "SAGGMSVEVDWGETTRRLTFYDESGNPVADAEEPVLDPLTGLSTSRGVSLEELARRAGVPVELPERRSAGGS [r16_778_JUSTAS]", "measure-unit": "kcal/mol", "recorded-result": 0.337}
{"sequence-data": "SAGGSKVEIWIRFGDYWIRITVEPKPNGRKKVSVEVYNPNGEPMWSITFEIDPDGKIKDIDITPMPSAGGSA [r2_260_TrROS]", "measure-unit": "kcal/mol", "recorded-result": 5.01}

SATKTITIELPVDVPVEVLKEFFEALGFTEMEFYETEDPRTLVVRFTVPGDPVTVIVIVRPLPVPPDEPLSA [r9_1090_TrMRF] yielded folding stability dG unfold of 3.55

SAGGMEVTFPVSPDLSPEEVRARIEAEIRPIAEARGAVDVEVPIVEYRRLPPDSVEFRFKVTVRFPRSAGGS [r8_184_JUSTAS] yielded folding stability dG unfold of 2.33

SAGGSAGGSAGGKVYFLPDNTVVYELPDGLYLAVTVNENGEPSRTLYRVLSPTEIKPFPLSAGGSAGGSAGG [r7_423_TrMRF] yielded folding stability dG unfold of 1.72

* * *

# folding stability dG unfold values compiled below
- experiment: folding stability dG unfold from trypsin proteolysis; higher = more stable
Give the number first and the unit second.

Worked cases, answers included:
{"sequence-data": "SAGGSAGGSAGGSKTKAELFKVGDKLILATYHPDTGKVEIFYPDNSVETLPAEEAEKLFSAGGSAGGSAGGS [r10_1140_TrMRF]", "recorded-result": "1.02 kcal/mol"}
{"sequence-data": "SAGGSAGGSAGEVEFELTVKLTVTHPSGGKSEIEVPVKITLPVVDISKEILESNPEVVKKANSAGGSAGGSA [r18_114_TrMRF]", "recorded-result": "0.486 kcal/mol"}
{"sequence-data": "SAGGMKVTVTEDGSSSKVTITIKDPKTGIEKTYTATATVLPDGTVVYTITYPDGSKKTIPSSELELSSAGGS [r16_154_JUSTAS]", "recorded-result": "2.11 kcal/mol"}
{"sequence-data": "SAGGMKVRVRLPDGTEVELEVTEVTVSTDPSTGTPVYTITLANGEKLTVTVPVDKPVRPGETVTVTPESAGG [r13_390_JUSTAS]", "recorded-result": "3.72 kcal/mol"}
{"sequence-data": "SAGGSAGGSAFTIHDLKLNKVEVHPDGTVTYHLEVTLPSGEKLKVVVLVDPRKPSLATFYFSSAGGSAGGSA [r18_97_TrMRF]", "recorded-result": "2.31 kcal/mol"}
{"sequence-data": "SAGGEVKPGEEVEVEVLVLVRGEDGELYLVRVKMRFRVKEDGTVEMEVEVEVVRVPLSEEELKALLEASAGG [r13_544_TrROS_Hall]", "recorded-result": "4.43 kcal/mol"}

SAGGSAGGSIKPGEEVTINFLVPPGNIPEFANELMKQDGIKDIEVKYQPFPNWYMVDITIRVKSAGGSAGGS [r12_993_TrROS] yielded folding stability dG unfold of 0.863 kcal/mol

SAGGMPADTPVIPIEILDIRVEPDPESDSYTAEVKVRFPDGTEKTFTIKLPKDATLEDVIEKAKELAASAGG [r13_578_TrMRF] yielded folding stability dG unfold of 3.83 kcal/mol

SAGGSAGGAEIVEIEVRKEKRPDGKEVLTVKVKIKLENGEEIEVTVREGMTLEEALKKAKELLKSAGGSAGG [r6_986_TrROS_Hall] yielded folding stability dG unfold of 2.1 kcal/mol

SAGFSITVDYEPEKGLWTVTFTSPPSTSPLSPEEVKETAREIAEKQGIKYELIEISREGNTWTMTIKVLSAG [r14_556_JUSTAS] yielded folding stability dG unfold of 4.25 kcal/mol

SAGGSAGGSAGRRIVFQFPLGMPIDEIADELADNGYEVEINWEPDPNGWMTFVIEITPPDSAGGSAGGSAGG [r11_1050_TrROS] yielded folding stability dG unfold of 1.45 kcal/mol

SAGGSAGGSAGGELKLLSVEEGPNETYTVSSSDGKLTVYTKPPDGSWKSTSLPLEPELLSAGGSAGGSAGGS [r10_99_JUSTAS] yielded folding stability dG unfold of -0.277 kcal/mol

SAGGSAGGSAGGTKEFPIWFGGEPVKVTVEPDPDGQPKIEIEEPGGAEITIPPGGPLQFSAGGSAGGSAGGS [r10_989_TrROS] yielded folding stability dG unfold of 0.934 kcal/mol

SAGGSAGGSAGGKVLKIKFSSIEEILEYIKNNDSVTIVVLDENDNPIGTITVEVKPGSLSAGGSAGGSAGGS [r10_193_TrMRF] yielded folding stability dG unfold of 1.67 kcal/mol

SAGGSAGGSDFPVKILEVEFHPNGSITIVIQAPDGWYIKATFHVPPNGNVKMSIELIPDPDAISAGGSAGGS [r20_23_TrROS] yielded folding stability dG unfold of 3.36 kcal/mol

SAGGSAGGSAGAKVKVFKVRAEVKLTRTADGELVAEVTEVEIEEVEVEVRPPPPPPLPPASAGGSAGGSAGG [r11_381_TrROS_Hall] yielded folding stability dG unfold of 1.67 kcal/mol
